- target_system: T1, recombinant human TROP2 extracellular domain (aa 1-274) comprising His tag (human, UniProt P09758 27-274)
- T1 construct: Used here for all assays on recombinant human TROP2 (ELISA, immunoblot, SPR, crystal), although only some of them name the catalogue number; also called human recombinant TROP2; recombinant human TROP2 protein; not shown: His tag
- T1 sequence: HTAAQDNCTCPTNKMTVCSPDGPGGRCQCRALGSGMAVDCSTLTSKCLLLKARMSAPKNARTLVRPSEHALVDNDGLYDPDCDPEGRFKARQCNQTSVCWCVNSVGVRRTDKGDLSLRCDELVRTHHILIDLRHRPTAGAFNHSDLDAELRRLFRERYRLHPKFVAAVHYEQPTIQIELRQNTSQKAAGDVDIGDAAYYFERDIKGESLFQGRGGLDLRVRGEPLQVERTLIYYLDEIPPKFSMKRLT
- assay_notes: ELISA, coated rh TROP2
observation_type: EC50 (nM)
Entry rule: numbers only, all in nM.

Reference set, count: 3
KD005 (antibody, human IgG1, V domains shown, also called anti-TROP2 sdAb KD005) VH: QVQLQESGGGLVEAGGSLRLSCAASGFTFSGSDMSWVRQAPGKGPEWVSYITSGGTTYYPDSVKGRFTISRDNAKNTLYLQMNSLKPDDTALYRCAKSRLTDSHYVEDAWGQGTQVTVSS; 0.08
KD059 (antibody, V domains shown, KD005 humanized variant) VH: QVQLQESGGGLIQPGGSLRLSCAASGFTFSGSDMSWVRQAPGKGPEWVSYITSGGTTYYADTVKGRFTISRDNSKNTLYLQMNSLRAEDTAVYRCAKSRLTDSHYVEDAWGQGTLVTVSS; 0.1
KD060 (antibody, V domains shown, KD005 humanized variant) VH: QVQLQESGGGLIQPGGSLRLSCAASGFTFSGSDMSWVRQAPGKGLEWVSYITSGGTTYYPDTVKGRFTISRDNSKNTLYLQMNSLRAEDTAVYRCAKSRLTDSHYVEDAWGQGTLVTVSS; 0.11

Proceed to the following item.
What does the data say about its EC50? Entry: KD063 (antibody, V domains shown, KD005 humanized variant) VH: QVQLQESGGGLIEPGGSLRLSCAASGFTFSGSDMSWVRQAPGKGLEWVSYITSGGTTYYADTVKGRFTISRDNSKNTLYLQMNSLRAEDTAVYRCAKSRLTDSHYVEDAWGQGTQVTVSS
0.12

Each recorded value in this set is attributed to patent US20240360242A1.
